What follows is a record of pKi for 5-hydroxytryptamine receptor 2A (Homo sapiens, UniProt P28223).
Hey, just a heads up that pKi is the negative log base 10 of the concentration in molar.

Prompt: # get_value(readout='pKi', item= `CN1C(=N)N(C)/C(=C/c2c[nH]c3cc(F)ccc23)C1=O` )
Response: 6.63

Prompt: # get_value(readout='pKi', item= `Cc1ncccc1Oc1ccc(NC(=O)N2CCc3cc(Br)ccc32)cn1` )
Response: 5.40

====

- target.under.test: 5-hydroxytryptamine receptor 2A (Homo sapiens, UniProt P28223)
- Sequence (P28223 whole entry): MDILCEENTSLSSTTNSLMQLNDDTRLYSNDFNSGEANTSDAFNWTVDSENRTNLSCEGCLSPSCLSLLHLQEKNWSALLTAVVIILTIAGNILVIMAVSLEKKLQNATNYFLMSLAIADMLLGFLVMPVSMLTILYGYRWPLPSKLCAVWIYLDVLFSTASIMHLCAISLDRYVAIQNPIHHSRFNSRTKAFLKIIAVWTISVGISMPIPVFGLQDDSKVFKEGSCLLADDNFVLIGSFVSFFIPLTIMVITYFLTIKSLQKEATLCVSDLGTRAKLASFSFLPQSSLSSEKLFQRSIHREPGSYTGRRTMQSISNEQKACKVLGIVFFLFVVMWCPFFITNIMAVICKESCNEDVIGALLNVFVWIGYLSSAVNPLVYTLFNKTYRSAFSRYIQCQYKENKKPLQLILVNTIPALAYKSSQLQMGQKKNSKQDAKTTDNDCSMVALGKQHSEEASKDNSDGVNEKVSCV
- experimental.protocol: Displacement of [3H]methylspiperone from human cloned 5HT2A receptor expressed in HEK293 cells at 3 uM after 90 mins by liquid scintillation counting
- Assay type: cell-based
So basically, if Activity comes in under 9% it's T, and if it's 9% or more it's F.

Examples from the recorded data:
CN1C(=N)NC(=O)/C1=C\c1c[nH]c2ccc(Br)cc12 | T
CN1C(=N)NC(=O)/C1=C\c1c[nH]c2cc(F)ccc12 | T
CN1C(=N)N(C)/C(=C/c2c[nH]c3cc(F)ccc23)C1=O | F

Prompt: Please determine if `CN1C(=N)N(C)/C(=C/c2c[nH]c3ccc(Cl)cc23)C1=O` is below 9% in terms of Activity.
Response: F

Prompt: Please determine if `CCN1C(=N)N(C)/C(=C/c2c[nH]c3cc(Br)ccc23)C1=O` is below 9% in terms of Activity.
Response: T
